# Assay system: Ratio of Nucleoli Translocation and Cytoplasm, AR (gene 367) (UniProt P10275)
# Sequence (P10275 whole entry, looked up): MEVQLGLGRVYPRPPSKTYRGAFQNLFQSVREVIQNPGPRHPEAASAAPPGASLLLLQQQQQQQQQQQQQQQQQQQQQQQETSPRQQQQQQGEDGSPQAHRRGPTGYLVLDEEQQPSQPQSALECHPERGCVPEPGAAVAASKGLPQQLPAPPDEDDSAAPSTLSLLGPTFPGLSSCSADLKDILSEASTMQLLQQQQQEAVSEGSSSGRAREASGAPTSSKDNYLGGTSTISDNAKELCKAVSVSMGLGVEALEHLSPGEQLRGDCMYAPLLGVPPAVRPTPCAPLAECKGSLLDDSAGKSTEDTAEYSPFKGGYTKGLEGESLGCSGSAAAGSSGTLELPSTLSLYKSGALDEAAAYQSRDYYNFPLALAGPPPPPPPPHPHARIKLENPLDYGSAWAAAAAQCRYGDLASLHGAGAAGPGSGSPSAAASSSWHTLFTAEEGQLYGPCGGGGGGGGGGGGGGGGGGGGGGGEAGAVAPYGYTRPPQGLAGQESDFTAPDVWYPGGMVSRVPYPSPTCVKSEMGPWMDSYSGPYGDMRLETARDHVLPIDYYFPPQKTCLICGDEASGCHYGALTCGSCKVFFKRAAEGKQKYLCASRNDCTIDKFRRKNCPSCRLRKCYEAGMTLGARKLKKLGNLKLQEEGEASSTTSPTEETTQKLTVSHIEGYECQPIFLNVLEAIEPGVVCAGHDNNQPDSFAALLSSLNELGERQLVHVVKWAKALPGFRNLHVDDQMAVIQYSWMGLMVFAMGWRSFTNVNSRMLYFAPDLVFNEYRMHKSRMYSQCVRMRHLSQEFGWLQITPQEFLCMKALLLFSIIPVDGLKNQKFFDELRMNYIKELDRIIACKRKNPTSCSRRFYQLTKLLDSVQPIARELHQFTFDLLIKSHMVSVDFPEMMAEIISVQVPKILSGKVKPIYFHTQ
# Measurement notes: UPITT_HCI_U2OS_AR_TIF2_Nucleoli_Cytoplasm_Ratio_Agonist: University of Pittsburgh U2OS Androgen Receptor-Transcriptional Intermediary Factor 2 (AR-TIF2) Agonism High Content Imaging Assay for Ratio of Nucleoli Translocation and Cytoplasm (AID 2284000);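 also: hits raise the red nucleolar to cytoplasm ratio above vehicle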
Inconclusive results are not listed. Activity calls are given as the source filed them. The calls were made as follows: active = hit-call score of the fitted dose curve at least 0.9, where 1 is the maximum; inconclusive = response in the unintended direction; inactive = score below 0.9.
Entry note: the call must match one of yes for active, no for inactive

Tell me the recorded outcome of this test for O=[N+]([O-])c1ccc(Cl)c([N+](=O)[O-])c1 .
yes

Tell me the recorded outcome of this test for O=C(O)COc1cc(Cl)c(Cl)cc1Cl .
no

Tell me the recorded outcome of this test for COCCl .
no

Tell me the recorded outcome of this test for OC(Cc1ccccc1Cl)(Cn1[nH]cnc1=S)C1(Cl)CC1 (stereo not given) .
no

Tell me the recorded outcome of this test for O=C1c2ccccc2C(=O)C1C(=O)C(c1ccccc1)c1ccc(Cl)cc1 (stereo not given) .
no

Data credit: PubChem BioAssay (EPA / NIEHS)
